Molecular target: α1B Human Adrenergic Receptor (Homo sapiens)
Construct: The entire coding region of α1B(1563 bp); expressed in transfected cells; host or cells: LM(tk-) cells
Sequence (P35368 whole entry): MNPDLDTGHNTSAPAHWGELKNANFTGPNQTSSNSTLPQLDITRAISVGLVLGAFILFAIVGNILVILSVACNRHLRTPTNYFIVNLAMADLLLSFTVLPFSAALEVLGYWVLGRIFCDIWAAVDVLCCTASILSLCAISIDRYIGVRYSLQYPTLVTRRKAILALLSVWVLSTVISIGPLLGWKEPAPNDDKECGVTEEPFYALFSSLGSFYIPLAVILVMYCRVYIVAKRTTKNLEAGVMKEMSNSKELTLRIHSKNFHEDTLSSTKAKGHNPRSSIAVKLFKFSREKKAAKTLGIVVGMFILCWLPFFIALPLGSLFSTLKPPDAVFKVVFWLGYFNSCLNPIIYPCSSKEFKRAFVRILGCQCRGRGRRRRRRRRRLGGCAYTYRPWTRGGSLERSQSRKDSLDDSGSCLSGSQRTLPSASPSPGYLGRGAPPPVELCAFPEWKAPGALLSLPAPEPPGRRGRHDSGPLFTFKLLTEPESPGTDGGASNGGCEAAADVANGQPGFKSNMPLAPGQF
Test: Equilibrium competition binding, [3H] prazosin, membranes of transfected LM(tk-) cells
Conditions: cloned human receptor; [3H] prazosin; read-out: pKi Alpha-1 B (converted)
PROPERTY_MEASURED: Ki (µM)
Give bare numbers, in µM.

CC(C)(C)c1nc2ccc(NC3=NCCN3)c(Br)c2[nH]1 [Example 45]: 11.5
Ic1c(NC2=NCCN2)ccc2nc[nH]c12 [Example 5]: 1.82
Cn1cnc2cc(NC3=NCCN3)ccc21 [Example 9]: 13.5

List reported Ki for each of these compounds:
1. CC(C)n1cnc2ccc(NC3=NCCN3)cc21 [Example 20]
2. CC(C)Cn1cnc2cc(NC3=NCCN3)ccc21 [Example 22]
3. CC(C)n1cnc2c(Br)c(NC3=NCCN3)ccc21 [Example 18]
4. Cn1cnc2c(Br)c(NC3=NCCN3)ccc21 [Example 10]
5. Cc1c(N=C2NCCN2)ccc2[nH]cnc12 [Example 4]
6. c1nc2ccc(NC3=NCCN3)cc2[nH]1 [Example 1, 5-(2-Imidazolin-2-ylamino)Benzimidazole]
7. CCCn1cnc2ccc(NC3=NCCN3)c(Br)c21 [Example 16]

Response:
58.9
105
20
3.8
2.75
24.5
0.513

---

Task for the reader: assign each of the following compounds its reported I.A Alpha-2 B.
Target: α2B Human Adrenergic Receptor (Homo sapiens)
Construct: expressed in transfected cells; host or cells: Y-1 cells
Sequence (P18089 whole entry): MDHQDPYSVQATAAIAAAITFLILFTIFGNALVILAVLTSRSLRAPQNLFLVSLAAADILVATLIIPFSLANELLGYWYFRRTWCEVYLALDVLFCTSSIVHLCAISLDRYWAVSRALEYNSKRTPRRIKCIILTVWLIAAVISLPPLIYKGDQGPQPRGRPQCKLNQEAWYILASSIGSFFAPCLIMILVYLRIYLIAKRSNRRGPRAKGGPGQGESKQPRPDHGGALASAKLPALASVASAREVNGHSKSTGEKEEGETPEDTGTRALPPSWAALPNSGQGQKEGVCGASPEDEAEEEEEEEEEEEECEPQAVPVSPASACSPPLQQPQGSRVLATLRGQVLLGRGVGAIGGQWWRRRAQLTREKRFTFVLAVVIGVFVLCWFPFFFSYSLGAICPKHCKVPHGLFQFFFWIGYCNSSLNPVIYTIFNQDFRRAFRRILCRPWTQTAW
Type: cell-based
Conditions: functional cAMP assay
Give bare numbers.

Sample records with I.A Alpha-2 B:
CCCCc1c(NC2=NCCN2)ccc2nc[nH]c12 [Example 8]: 0.80
Cn1cnc2ccc(NC3=NCCN3)c(Br)c21 [Example 12]: 1.00
Brc1c(NC2=NCCN2)ccc2nc(C(c3ccccc3)c3ccccc3)[nH]c12 [Example 48]: 0.80
Cn1cnc2cc(NC3=NCCN3)ccc21 [Example 9]: 1.00
c1ccc(-c2cc(NC3=NCCN3)cc3[nH]cnc23)cc1 [Example 57]: 1.00

List reported I.A Alpha-2 B for each of these compounds:
1. CCCCc1cc(NC2=NCCN2)cc2[nH]cnc12 [Example 56]
2. Ic1cc(NC2=NCCN2)cc2[nH]cnc12 [Example 54]
3. COc1ccc(Cn2cnc3c(Br)c(NC4=NCCN4)ccc32)cc1 [Example 36]

Response:
1. 0.30
2. 0.60
3. 0.60

List reported I.A Alpha-2 B for each of these compounds:
1. Brc1c(NC2=NCCN2)ccc2nc[nH]c12 [Example 2]
2. Clc1c(NC2=NCCN2)ccc2nc[nH]c12 [Example 3]
3. OCCn1cnc2c(Br)c(NC3=NCCN3)ccc21 [Example 38]

Response:
1.00
1.00
0.80

---

Molecular target: UniProt P18825
Sequence (P18825 whole entry): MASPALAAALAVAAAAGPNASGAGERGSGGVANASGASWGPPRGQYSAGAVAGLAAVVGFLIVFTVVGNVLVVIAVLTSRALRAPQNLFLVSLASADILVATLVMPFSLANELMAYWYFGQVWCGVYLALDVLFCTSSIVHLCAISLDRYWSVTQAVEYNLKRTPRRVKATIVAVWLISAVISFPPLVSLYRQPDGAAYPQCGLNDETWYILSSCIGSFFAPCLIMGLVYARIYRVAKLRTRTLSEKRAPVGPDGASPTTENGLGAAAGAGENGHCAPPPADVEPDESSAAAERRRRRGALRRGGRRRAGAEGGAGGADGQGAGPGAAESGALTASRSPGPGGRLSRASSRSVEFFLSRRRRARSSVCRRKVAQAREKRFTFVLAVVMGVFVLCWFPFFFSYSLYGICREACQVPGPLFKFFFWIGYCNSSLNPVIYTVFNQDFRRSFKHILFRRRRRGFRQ
Format: cell-based
Design: The entire coding region of α2C (1383 bp), including 2 bp of 5′ UT and 400 bp of 3′ UT; expressed in transfected cells; host or cells: LM(tk-) cells
Task for the reader: assign each of the following compounds its reported pEC50.
Answers are plain numbers, as −log10 of the molar value.

Brc1cc(NC2=NCCN2)cc2[nH]cnc12: 8.37

List reported pEC50 for each of these compounds:
1. Brc1cc2nc[nH]c2c(Br)c1NC1=NCCN1
2. Clc1cc(NC2=NCCN2)cc2[nH]cnc12

Response:
7.15
8.97

List reported pEC50 for each of these compounds:
1. Ic1c(NC2=NCCN2)ccc2nc[nH]c12
2. Cn1cnc2c(Br)c(NC3=NCCN3)ccc21
3. Cc1cc(NC2=NCCN2)c(Br)c2[nH]cnc12
4. CCCc1c(NC2=NCCN2)ccc2nc[nH]c12
5. Brc1c(NC2=NCCN2)ccc2nc(C3CC3)[nH]c12

Response:
1. 8.87
2. 8.63
3. 8.89
4. 8.21
5. 7.34

List reported pEC50 for each of these compounds:
1. CCc1c(NC2=NCCN2)ccc2nc[nH]c12
2. Clc1c(NC2=NCCN2)ccc2nc[nH]c12

Response:
1. 8.40
2. 9.25

List reported pEC50 for each of these compounds:
1. Clc1cc(NC2=NCCN2)c(Br)c2[nH]cnc12
2. c1nc2ccc(NC3=NCCN3)cc2[nH]1
3. Brc1cc(NC2=NCCN2)c(Br)c2[nH]cnc12

Response:
9.40
8.56
8.49
